Target Desc: UniProtKB P08246
Sequence (P08246 30-267): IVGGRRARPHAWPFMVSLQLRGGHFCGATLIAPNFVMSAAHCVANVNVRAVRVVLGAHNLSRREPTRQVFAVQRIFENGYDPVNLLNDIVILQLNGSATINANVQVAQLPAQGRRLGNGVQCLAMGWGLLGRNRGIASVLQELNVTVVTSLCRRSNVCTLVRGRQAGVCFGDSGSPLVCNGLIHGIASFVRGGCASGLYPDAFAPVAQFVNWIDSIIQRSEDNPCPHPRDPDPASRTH
Assay: Inhibition of Human Leukocyte Elastase (HLE); hydrolysis of Methoxy-succinyl-Alanyl-Alanyl-Prolyl-Valyl-nitroanilide
Type: biochemical
Experimental Context: 1.0 × 10^-5 Molar
Quick reference: inhibition at 10 µM of the listed items.
Quick reminder: number only, in %, skip the unit.

Measured inhibition at 10 µM for this entry CCCCCCCCCCCCCCOCc1cc(=O)c(O)co1 on UniProtKB P08246: 34

Next:
Summary line: CCCCCCCCCCCCCCCCCCOCc1cc(=O)c(OC(=O)C(C)(C)C)co1 , UniProtKB P08246, reported inhibition at 10 µM = 73

Field inhibition at 10 µM (UniProtKB P08246), entry CCCCCCCCCCCCCCCCOCc1cc(=O)c(OC(=O)C(C)C(C)C)co1 (stereo not drawn) : 48

Short answer on UniProtKB P08246 for CCCCCCCCCCCCCCCCOc1coc(COC(=O)C(C)(C)C)cc1=O , inhibition at 10 µM: 62

Noted inhibition at 10 µM for CCCCCCCCCCCCCCCCOc1coc(C(=O)O)cc1=O , tested on UniProtKB P08246: 83

Record for CCCCCCCCCCCCCCCCOCc1cc(=O)c(OC(=O)CC(C)C)co1 under target or system UniProtKB P08246: inhibition at 10 µM reported as 52

Measured inhibition at 10 µM (UniProtKB P08246), entry CCCCCCCCCCCCCCCCOCc1cc(=O)c(OC(=O)C(C)(C)C)co1 : 87

The compound CCCCCCCCCCCCCCOCc1cc(=O)c(OC(=O)C(C)(C)C)co1 , when measured on UniProtKB P08246, yielded inhibition at 10 µM of 81

Note to self: inhibition at 10 µM of CCCCCCCCCCCCCCCCCCOCc1cc(=O)c(O)co1 with UniProtKB P08246 was 46
